Test system: HBMVEC Endothelial
Assay text: WST-1 cytotoxic screening, HBMVEC Endothelial
Measurement setup: read-out: Effective concentration for 50% cell death (EC50); HBMVEC Endothelial, treatment for 24 hours
pEC50: −log10 of the molar value.
Quantity measured: pEC50

Q. What measured pEC50 goes with "CC1(C)Oc2ccc(S(=O)(=O)Nc3ccccc3)cc2[C@@H](N2CCCCC2=O)[C@@H]1O" ?
A. < 3.00

----------
Tested on: 9L Glioma
Assay text: WST-1 cytotoxic screening, 9L Glioma
Format: cell-based
Measurement setup: treatment for 24 hours, read-out: Effective concentration for 50% cell death (EC50)
Experimental: Thus, the inventors examined the in vitro effect of several ATP-dependent potassium channel agonists on cell viability in a wide range of tumor and normal cells. Table 1 depicts the in vitro effect of KATP channel agonists on cell viability in a range of tumor and normal cells. The cytotoxic screening assay (WST-1 assay; Roche Diagnostics) results shown are the effective KATP channel agonist concentration (μM) required for 50% cell death (EC50) after exposure to the same for 24 hours. […]
Quantity measured: pEC50
Give bare numbers, as −log10 of the molar value.

Q. Return reported pEC50; argument: CC(N/C(=N\C#N)Nc1ccncc1)C(C)(C)C (centres unmarked)
A. 3.10
